Provide the recorded IC50 for the entries that follow.
tested on: Ninety four (94) cell lines and PBMC; assay: Cell viability assay, SRB staining, 94 cell lines and PBMC (Example 7, Experiment 2); type: cell-based; conditions: Homo sapiens, ASPC1, ASPC1, pancreas
Please give a number only; it is taken to be in µM.

Lab note: "CC(=O)N[C@@H](Cc1c[nH]c2ccccc12)C(=O)N[C@@H](CCC(=O)C=[N+]=[N-])C(=O)OC(C)C" gave IC50 of 8.36

Lab note: [N-]=[N+]=CC(=O)CC[C@H](N)C(=O)O [DON, 6-Diazo-5-oxo-L-norleucine, reference compound] gave IC50 of 5.58
